The values you see were collected from the supplement of paper PMC6555819.

Parameter: PBM binding z-score. Scope: all listed entries.
Test system: PPARa:RXRa (NR concentration 270 nM, RXRa partner concentration 90 nM)
Assay: PBM binding z-score (relative to random genomic background probes); higher = stronger binding; sequences stand for … in GC…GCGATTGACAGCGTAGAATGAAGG
Number, no unit, nothing else.

# annotated cases, reported PBM binding z-score shown
TCTGCCAGGTCAGTTGGTCAGCTAACGAGCTGCC ... 1.61
CGAACTAGGTTATCCAGGACAGTGAATACATTGA ... 2.31
GGAATGAGGGCAAGTTGATAGCAGAGTTTGATGG ... 2.08
CCGACTGGGGCAAATGTTACCATACTCAGTACGA ... 2.25
ACTAGCAGCCCAAGGGTCACTCAAGATTAGTCCG ... 3.14

Consider the sequence shown here: "ATCTCTAGGTAAAGATCGTTCAGTGAATGCAAAT" What is its recorded PBM binding z-score? 0.218

Consider the sequence shown here: "GCTGCTACGTCAGGTTGGTCAGCTAACGGGTACG" What is its recorded PBM binding z-score? -0.713

Consider the sequence shown here: "ATCGAAAGGACGTGAGGTGAGTATACAGAAAGGC" What is its recorded PBM binding z-score? -0.116

Consider the sequence shown here: "GCGACTGGGGCATCAGCAGGTTTCCATAACTTAA" What is its recorded PBM binding z-score? 0.353

Consider the sequence shown here: "TAGCCTAGGTCAGATCGGGTCAGTATACGCTATA" What is its recorded PBM binding z-score? 2.8

Consider the sequence shown here: "CAGCCTAAGTCAGGGCCAGTATAGGAGGAACGTT" What is its recorded PBM binding z-score? -0.483

Consider the sequence shown here: "ATTTCTAGGTAAGACTCAGTTCAGTGAAGAACGC" What is its recorded PBM binding z-score? 0.972
